Below, each entry is listed with its recorded inhibition.
biological target: Polyadenylate-binding protein 1 (Homo sapiens) (UniProt P11940); test: PABP poly(A) RNA binding inhibitors, primary screen, biochemical, fluorescence polarization, uHTS (AID 2014); conditions: at 35 µM, active compounds read high;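 note: calls also rest on retests at 20 µM and on dose response follow-up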
Sequence (P11940 whole entry, looked up): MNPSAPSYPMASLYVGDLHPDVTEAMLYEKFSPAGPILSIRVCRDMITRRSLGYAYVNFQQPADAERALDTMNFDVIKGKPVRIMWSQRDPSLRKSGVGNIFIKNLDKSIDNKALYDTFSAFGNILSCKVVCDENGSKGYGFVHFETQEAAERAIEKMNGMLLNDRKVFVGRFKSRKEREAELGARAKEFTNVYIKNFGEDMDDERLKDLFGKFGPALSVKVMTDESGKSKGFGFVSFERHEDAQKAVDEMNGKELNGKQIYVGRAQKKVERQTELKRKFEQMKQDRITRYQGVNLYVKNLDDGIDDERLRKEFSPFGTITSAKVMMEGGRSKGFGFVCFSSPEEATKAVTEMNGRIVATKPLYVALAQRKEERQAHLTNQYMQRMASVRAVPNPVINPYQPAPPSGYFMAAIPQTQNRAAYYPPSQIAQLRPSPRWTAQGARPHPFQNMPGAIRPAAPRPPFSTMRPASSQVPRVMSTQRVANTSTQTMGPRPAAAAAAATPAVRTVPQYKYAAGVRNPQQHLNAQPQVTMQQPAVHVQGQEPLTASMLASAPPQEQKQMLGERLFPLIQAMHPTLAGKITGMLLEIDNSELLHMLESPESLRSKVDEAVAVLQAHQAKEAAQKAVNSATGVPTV
In all, about 290,000 compounds went through this assay and about 3,000 (1%) were called active. What follows is part of a selection rich in actives, with near analogues and random picks from the rest.

[
  {
    "Compound": "O=C(NCCCNCc1ccccc1)c1ccc(/C=N/O)nc1",
    "System Under Test": "Polyadenylate-binding protein 1 (Homo sapiens) (UniProt P11940)",
    "Parameter": "inhibition",
    "Readout Value": "-3.1% (inactive)"
  }
]

Query :: Using known records, supply inhibition for Cc1cc(C)nc(N/N=C/c2ccncc2)n1
Result :: 2% (inactive)

Query :: Using known records, supply inhibition for O=C1CCNCCN1[C@H](CO)Cc1ccccc1
Result :: -8.7% (inactive)

Query :: Using known records, supply inhibition for CC(=O)c1ccc(OC(=O)N2CCOCC2)cc1
Result :: -1.2% (inactive)

Query :: Using known records, supply inhibition for CCOC(OCC)c1ccc(/C=C\c2nccc(N)n2)cc1
Result :: -16.6% (inactive)

Query :: Using known records, supply inhibition for CC(C)=CCN1CCN(CCCc2ccccc2)CC1CCO (stereo not drawn)
Result :: -4.3% (inactive)

Query :: Using known records, supply inhibition for CC(=O)c1ccccc1OCc1ccc(C(=O)c2ccccc2)cc1
Result :: 0.6% (inactive)

Query :: Using known records, supply inhibition for CCN(CC)c1ccc(/C=N/Nc2nc(C)cc(C)n2)c(O)c1
Result :: 16.6% (active)

* * *

biological target: Polyadenylate-binding protein 1 (Homo sapiens); test: PABP poly(A) RNA binding inhibitors, primary screen, biochemical, fluorescence polarization, uHTS (AID 2014); settings: at 35 µM, active compounds read high;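 note: calls also rest on retests at 20 µM and on dose response follow-up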
The whole screen tested about 290,000 compounds, of which about 3,000 (1%) were called active. For the sample, actives were picked, then their nearest neighbours and some compounds at random.
Assign 1 to entries whose inhibition meets or exceeds 10%; assign 0 to the rest.

[
  {
    "Compound": "CC[C@H]1CN2CCc3cc(OC)c(OC)cc3[C@@H]2C[C@@H]1C[C@H]1NCCc2cc(OC)c(OC)cc21",
    "System Under Test": "Polyadenylate-binding protein 1 (Homo sapiens)",
    "Class Assignment": 0
  },
  {
    "Compound": "COc1cc2c(cc1O)[C@H](Cc1ccc(Oc3cc(C[C@@H]4NCCc5cc(OC)c(O)cc54)ccc3O)cc1)NCC2",
    "System Under Test": "Polyadenylate-binding protein 1 (Homo sapiens)",
    "Class Assignment": 0
  },
  {
    "Compound": "O=C(OCc1ccc(-c2ccccc2)cc1)c1cccc(O)c1",
    "System Under Test": "Polyadenylate-binding protein 1 (Homo sapiens)",
    "Class Assignment": 1
  },
  {
    "Compound": "COc1ccc(C(=O)NCCNc2ccc([N+](=O)[O-])cn2)cc1",
    "System Under Test": "Polyadenylate-binding protein 1 (Homo sapiens)",
    "Class Assignment": 0
  }
]

Here's the next entry for you.
Query :: Form field: inhibition at least 10%? Entry: Oc1c(Cl)cc(Cl)c(Cl)c1Cc1c(O)c(Cl)cc(Cl)c1Cl
Result :: 0
